Study System: Receptor-interacting serine/threonine-protein kinase 1 (Homo sapiens, UniProt Q13546)
Sequence (Q13546 whole entry): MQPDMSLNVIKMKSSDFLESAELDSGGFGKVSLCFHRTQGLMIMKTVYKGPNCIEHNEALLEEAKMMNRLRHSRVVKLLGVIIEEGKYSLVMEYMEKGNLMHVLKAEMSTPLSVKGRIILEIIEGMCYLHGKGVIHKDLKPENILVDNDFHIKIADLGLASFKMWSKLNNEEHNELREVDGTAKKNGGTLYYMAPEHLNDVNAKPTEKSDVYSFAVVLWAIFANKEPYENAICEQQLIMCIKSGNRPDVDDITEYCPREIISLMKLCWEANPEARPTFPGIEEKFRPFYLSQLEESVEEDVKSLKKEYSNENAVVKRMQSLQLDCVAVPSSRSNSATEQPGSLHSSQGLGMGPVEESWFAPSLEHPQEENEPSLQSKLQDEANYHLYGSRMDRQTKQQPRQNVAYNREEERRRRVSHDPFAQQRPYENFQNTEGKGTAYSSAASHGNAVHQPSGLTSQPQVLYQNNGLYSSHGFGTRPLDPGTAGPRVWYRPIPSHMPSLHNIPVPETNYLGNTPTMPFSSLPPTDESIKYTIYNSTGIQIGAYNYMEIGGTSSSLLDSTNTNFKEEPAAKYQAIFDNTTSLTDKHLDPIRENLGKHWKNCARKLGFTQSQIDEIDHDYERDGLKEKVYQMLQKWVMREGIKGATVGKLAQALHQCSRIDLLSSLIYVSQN
Assay: Displacement of fluorescein labeled ATP probe from His/GST-tagged RIPK1 (unknown origin) incubated for 60 mins by HTRF assay
Endpoint Label: IC50 (µM)

1. Cc1cc(NC(=O)c2cccn(-c3ccc(F)cc3)c2=O)ccc1Oc1ccnc(NC(=O)C2CC2)c1
0.2
2. Cc1c(NC(=O)c2cccn(-c3ccc(F)cc3)c2=O)ccc(Oc2ccnc(NC(=O)C3CC3)c2)c1C
5.5

* * *

Quick note: these are IC50 numbers for system: Hepatocyte growth factor receptor (Homo sapiens)
Sequence (P08581 whole entry): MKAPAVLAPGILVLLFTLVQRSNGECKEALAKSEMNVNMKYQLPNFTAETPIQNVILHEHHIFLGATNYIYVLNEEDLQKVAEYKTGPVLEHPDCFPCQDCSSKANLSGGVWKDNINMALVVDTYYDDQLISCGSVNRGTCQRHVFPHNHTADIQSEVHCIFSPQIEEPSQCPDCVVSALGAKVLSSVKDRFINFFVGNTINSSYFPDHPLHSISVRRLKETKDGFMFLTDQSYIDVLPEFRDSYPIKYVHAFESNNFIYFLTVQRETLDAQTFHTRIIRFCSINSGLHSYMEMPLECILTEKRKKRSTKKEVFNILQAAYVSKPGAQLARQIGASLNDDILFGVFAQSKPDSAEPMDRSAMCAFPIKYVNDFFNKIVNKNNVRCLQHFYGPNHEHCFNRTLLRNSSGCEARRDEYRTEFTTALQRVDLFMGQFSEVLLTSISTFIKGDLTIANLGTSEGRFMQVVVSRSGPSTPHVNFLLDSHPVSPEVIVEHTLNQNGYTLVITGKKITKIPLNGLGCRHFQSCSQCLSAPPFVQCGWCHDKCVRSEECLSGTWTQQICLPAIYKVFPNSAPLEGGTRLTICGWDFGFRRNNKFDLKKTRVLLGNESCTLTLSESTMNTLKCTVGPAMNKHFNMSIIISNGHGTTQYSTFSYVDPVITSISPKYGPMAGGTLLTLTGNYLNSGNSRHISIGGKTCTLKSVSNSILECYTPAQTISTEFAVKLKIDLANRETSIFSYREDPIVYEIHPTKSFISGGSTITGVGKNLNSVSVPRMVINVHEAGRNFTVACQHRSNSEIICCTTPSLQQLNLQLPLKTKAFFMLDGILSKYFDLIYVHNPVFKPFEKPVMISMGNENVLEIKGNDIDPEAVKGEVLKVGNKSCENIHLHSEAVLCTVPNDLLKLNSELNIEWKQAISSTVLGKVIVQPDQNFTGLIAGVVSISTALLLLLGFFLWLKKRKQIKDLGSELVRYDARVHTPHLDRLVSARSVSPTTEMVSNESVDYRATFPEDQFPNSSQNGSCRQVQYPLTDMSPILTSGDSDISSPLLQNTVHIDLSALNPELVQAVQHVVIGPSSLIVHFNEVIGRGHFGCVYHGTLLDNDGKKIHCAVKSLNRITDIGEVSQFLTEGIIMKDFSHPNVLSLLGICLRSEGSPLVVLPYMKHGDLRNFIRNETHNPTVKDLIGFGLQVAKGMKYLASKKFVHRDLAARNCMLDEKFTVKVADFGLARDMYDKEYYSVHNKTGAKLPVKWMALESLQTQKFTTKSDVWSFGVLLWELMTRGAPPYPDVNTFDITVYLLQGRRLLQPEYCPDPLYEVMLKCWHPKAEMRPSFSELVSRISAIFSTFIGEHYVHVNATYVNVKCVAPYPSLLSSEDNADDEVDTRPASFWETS
Endpoint Label: IC50 (nM)

1. O=C(Nc1ccc(Oc2ccncc2)c(F)c1)c1cccn(-c2ccc(F)cc2)c1=O
18
2. Cc1cc(NC(=O)c2cccn(-c3ccc(F)cc3)c2=O)cc(C)c1Oc1ccncc1
500
3. O=C(Nc1ccc(Oc2ccncc2)c2ccccc12)c1cccn(-c2ccc(F)cc2)c1=O
12000

* * *

Study System: Receptor-interacting serine/threonine-protein kinase 3 (Homo sapiens, UniProt Q9Y572)
Sequence (Q9Y572 whole entry): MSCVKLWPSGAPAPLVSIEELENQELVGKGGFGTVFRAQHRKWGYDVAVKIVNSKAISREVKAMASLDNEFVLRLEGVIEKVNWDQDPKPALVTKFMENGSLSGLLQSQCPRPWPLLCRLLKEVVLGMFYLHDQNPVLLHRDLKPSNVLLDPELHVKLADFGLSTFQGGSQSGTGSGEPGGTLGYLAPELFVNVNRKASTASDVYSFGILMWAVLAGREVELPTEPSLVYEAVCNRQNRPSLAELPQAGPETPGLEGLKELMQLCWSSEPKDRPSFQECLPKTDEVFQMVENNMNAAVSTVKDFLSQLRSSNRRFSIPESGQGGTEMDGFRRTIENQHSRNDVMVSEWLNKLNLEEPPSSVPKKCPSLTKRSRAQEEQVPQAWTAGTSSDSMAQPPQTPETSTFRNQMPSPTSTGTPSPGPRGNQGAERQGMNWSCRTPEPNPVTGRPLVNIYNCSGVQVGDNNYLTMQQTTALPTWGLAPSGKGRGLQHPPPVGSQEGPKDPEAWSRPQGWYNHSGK
Assay: Displacement of fluorescein labeled ATP probe from full length His/GST-tagged RIPK3 (unknown origin) incubated for 60 mins by HTRF assay
Listed here are compounds together with their documented log10 IC50.
Endpoint Label: log10 IC50 (log10 of the value in nM)

1) Cc1c(NC(=O)c2cccn(-c3ccc(F)cc3)c2=O)ccc(Oc2ccnc(NC(=O)C3CC3)c2)c1C
1.96
2) Cc1cc(NC(=O)c2cccn(-c3ccc(F)cc3)c2=O)cc(C)c1Oc1ccncc1
2.51
3) O=C(Nc1ccc(Oc2ccnc3[nH]ccc23)c(F)c1)c1cccn(-c2ccc(F)cc2)c1=O
2.26
4) Cc1c(NC(=O)c2cccn(-c3ccc(F)cc3)c2=O)ccc(Oc2ccncc2)c1C
2.26
5) Cc1cc(NC(=O)c2cccn(-c3ccc(F)cc3)c2=O)cc(C)c1Oc1ccnc(NC(=O)C2CC2)c1
1.94
6) O=C(Nc1ccc(Oc2ccnc(NC(=O)C3CC3)c2)c(F)c1)c1cccn(-c2ccc(F)cc2)c1=O
0.46
7) O=C(Nc1ccc(Oc2ccncc2)c2ccccc12)c1cccn(-c2ccc(F)cc2)c1=O
1.70
8) CC#Cc1c(Oc2ccc(NC(=O)c3cccn(-c4ccc(F)cc4)c3=O)cc2F)ccnc1N
1.20
9) O=C(Nc1ccc(Oc2ccncc2)c(F)c1)c1cccn(-c2ccc(F)cc2)c1=O
2.60
10) Cc1cc(NC(=O)c2cccn(-c3ccc(F)cc3)c2=O)ccc1Oc1ccnc(NC(=O)C2CC2)c1
0.90
